Method notes: Volume of distribution at steady state in Sprague-Dawley rat at 0.5 mg/kg, iv by LC-MS/MS analysis
Assay type: ADME, organism-based
Set-up: dose 0.5 mg/kg, route intravenous
Experimental setup: in vivo, read-out: Vdss
The entries below are paired with their reported Vd.
Give the value, in units of L/kg, as a plain number.

given_smiles=Cn1cc(-c2cc3[nH]nc(-c4cccc(S(N)(=O)=O)c4)c3cc2NC2CCCCC2)cn1 quantity_measured=Vd recorded_result=2.8

// below: Vd requested for another molecule
Q) Give reported Vd value for `CC(=O)Nc1cccc(-c2n[nH]c3cc(-c4cnn(C)c4)c(NC4CCCCC4)cc23)c1`
A) 1
